Target: human recombinant Aurora B (Homo sapiens (Human))
Sequence (Q96GD4 whole entry): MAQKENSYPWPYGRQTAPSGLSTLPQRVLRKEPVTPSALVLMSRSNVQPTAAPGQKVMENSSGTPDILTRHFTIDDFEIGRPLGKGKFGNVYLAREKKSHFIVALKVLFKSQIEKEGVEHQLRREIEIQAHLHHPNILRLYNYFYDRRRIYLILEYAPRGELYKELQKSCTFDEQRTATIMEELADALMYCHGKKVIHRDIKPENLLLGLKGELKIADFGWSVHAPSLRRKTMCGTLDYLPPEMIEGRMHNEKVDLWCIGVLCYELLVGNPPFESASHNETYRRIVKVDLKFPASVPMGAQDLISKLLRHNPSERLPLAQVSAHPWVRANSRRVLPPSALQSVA
Experiment: Aurora B Kinase Biochemical Assay (ADP-Glo)
Details: ratio of Aurora B IC50 to PLK4 IC50 (selectivity)
Description: Activity of human recombinant Aurora B (ThermoFisher, cat #PR9210B) was measured by quantification of adenosine diphosphate (ADP) using the ADP-Glo Kinase Assay Kit (Promega, cat #V9102). […] The simultaneous conversion of the remaining ADP to ATP and measurement of the newly synthesized ATP was achieved by addition of 20 µL Kinase Detection reagent (Promega, cat #V914B), incubation for 30 min at RT, and luminescence detection using the EnVision plate reader (PerkinElmer). […]
endpoint_name: [Aurora B IC50 (nM)]/[PLK4 IC50 (nM)]

compound=COc1ccc2c(c1)[C@]1(C[C@H]1c1ccc3c(Nc4cc(N5CC(O)C5)nc(C(C)C)n4)n[nH]c3c1)C(=O)N2 test_result=144.4951
compound=CCOc1cc(C(=O)N(C)C)cnc1Nc1n[nH]c2cc([C@@H]3C[C@@]34C(=O)Nc3ccc(OC)cc34)ccc12 test_result=333.7812
compound=COc1ccc2c(c1)[C@]1(C[C@H]1c1ccc3c(Nc4nc5ccccc5cc4OC)n[nH]c3c1)C(=O)N2 test_result=389.4357
compound=COc1ccc2c(c1)[C@]1(C[C@H]1c1ccc3c(Nc4ccc(C)nc4OC)n[nH]c3c1)C(=O)N2 test_result=366.7569
compound=COc1ccc2c(c1)[C@]1(C[C@H]1c1ccc3c(Nc4ccc(N5CCCC5=O)nc4OC)n[nH]c3c1)C(=O)N2 test_result=53.57
compound=COc1ccc2c(c1)[C@]1(C[C@H]1c1ccc3c(Nc4nc(C(C)C)ncc4OC)n[nH]c3c1)C(=O)N2 test_result=495.7388
compound=COc1ccc2c(c1)[C@]1(C[C@H]1c1ccc3c(Nc4ncnc(N5CCS(=O)(=O)CC5)c4Cl)n[nH]c3c1)C(=O)N2 test_result=251.7986
compound="COc1ccc2c(c1)[C@]1(C[C@H]1c1ccc3c(Nc4ccc([S+](C)[O-])nc4OC)n[nH]c3c1)C(=O)N2 (single isomer, unassigned) [Example 240]" test_result=102.4323
compound=COc1ccc2c(c1)[C@]1(C[C@H]1c1ccc3c(Nc4ncnc(N5CCOCC5)c4Cl)n[nH]c3c1)C(=O)N2 test_result=240.6394
compound=CCOc1cc(S(=O)(=O)NC)cnc1Nc1n[nH]c2cc([C@@H]3C[C@@]34C(=O)Nc3ccc(OC)cc34)ccc12 test_result=230
compound=COc1ccc2c(c1)[C@]1(C[C@H]1c1ccc3c(Nc4ccc(C(=O)N(C)C)nc4OC)n[nH]c3c1)C(=O)N2 test_result=68.4539
compound=COc1ccc2c(c1)[C@]1(C[C@H]1c1ccc3c(Nc4nn(C)cc4OC)n[nH]c3c1)C(=O)N2 test_result=6.986
compound=COc1ccc2c(c1)[C@]1(C[C@H]1c1ccc3c(Nc4cc(N5CCS(=O)(=O)CC5)nc(C)n4)n[nH]c3c1)C(=O)N2 test_result=7.855
compound=COc1ccc2c(c1)[C@]1(C[C@H]1c1ccc3c(Nc4nc(C)ccc4OC)n[nH]c3c1)C(=O)N2 test_result=44.7979
